# system name: His6‐FraB (Salmonella FraB deglycase) (Salmonella enterica subsp. enterica serovar Typhimurium)
# Sequence (Q8ZLD0 entry or part of it): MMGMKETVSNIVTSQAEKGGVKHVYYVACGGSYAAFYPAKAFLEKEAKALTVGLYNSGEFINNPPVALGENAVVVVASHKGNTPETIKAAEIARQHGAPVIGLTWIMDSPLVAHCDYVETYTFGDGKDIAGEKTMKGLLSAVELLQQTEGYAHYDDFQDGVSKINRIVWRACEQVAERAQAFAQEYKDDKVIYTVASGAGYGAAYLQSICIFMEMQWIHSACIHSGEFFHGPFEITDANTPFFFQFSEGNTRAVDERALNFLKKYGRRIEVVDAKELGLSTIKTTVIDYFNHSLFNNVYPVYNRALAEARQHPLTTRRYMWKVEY
# protocol text: FraB-G6PD coupled assay, Michaelis–Menten analysis for K I and mode of inhibition
# Type: biochemical
# settings: IC50 (IC50 versus [S]/Km plots), Trial 2; 6-P-F-Asp 125 µM, S/Km 2.97619; unit from Fig. S11 axis
reported endpoint: IC50 (µM)
One number for each entry, in µM.

INPUT: Given the entry `Fc1ccc(-c2nn3c(-c4ccccn4)nnc3s2)cc1` , report its measured IC50.
OUTPUT: 37.7

====

# system name: His6‐FraB (Salmonella FraB deglycase) (Salmonella enterica subsp. enterica serovar Typhimurium)
# protocol text: FraB-G6PD coupled assay, Michaelis–Menten analysis for K I and mode of inhibition
# Format: biochemical
# settings: trial shown in Fig. S11 panels M-X; read-out: IC50, mean and standard deviation of all IC50 values in IC50 vs [S]/Km plot
reported endpoint: pIC50
One number for each entry, as −log10 of the molar value.

INPUT: Please look up its pIC50: c1ccc(-c2nnc3sc(C4COc5ccccc5O4)nn23)nc1 (stereo not shown)
OUTPUT: 4.30
